Biological target: UniProtKB O96013
Sequence (O96013 whole entry): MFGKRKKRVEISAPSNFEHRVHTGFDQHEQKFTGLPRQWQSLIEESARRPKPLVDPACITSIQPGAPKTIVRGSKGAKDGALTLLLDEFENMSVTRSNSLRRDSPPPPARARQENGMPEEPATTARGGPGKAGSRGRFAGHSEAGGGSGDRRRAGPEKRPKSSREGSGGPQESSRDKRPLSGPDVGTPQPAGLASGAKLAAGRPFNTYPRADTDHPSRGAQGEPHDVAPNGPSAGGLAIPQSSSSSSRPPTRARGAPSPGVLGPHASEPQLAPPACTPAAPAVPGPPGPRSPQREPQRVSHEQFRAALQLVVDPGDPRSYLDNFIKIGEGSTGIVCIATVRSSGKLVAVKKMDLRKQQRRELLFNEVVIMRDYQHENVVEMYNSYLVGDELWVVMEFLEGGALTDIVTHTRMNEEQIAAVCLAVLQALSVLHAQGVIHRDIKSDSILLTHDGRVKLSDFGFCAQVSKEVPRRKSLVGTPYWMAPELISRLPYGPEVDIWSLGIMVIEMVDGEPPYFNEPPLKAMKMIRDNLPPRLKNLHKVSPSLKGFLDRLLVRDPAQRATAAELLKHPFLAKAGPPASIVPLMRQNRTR
pIC50: −log10 of the molar value.
The label depends only on pIC50: Condition met if it is at least 7, Condition not met if it is smaller.

Would you please look over these solved cases?
FC(F)(F)c1ccc(N2CCN(c3nc(Nc4cc(C5CC5)[nH]n4)c4cc(Cl)ccc4n3)CC2)nc1    Condition not met
COc1ccnc(N2CCN(c3nc(Nc4cc(C5CC5)[nH]n4)c4cc(Cl)ccc4n3)CC2)c1    Condition not met

Turning now to a further compound:
Prompt line: Say whether `Clc1ccc2nc(N3CCN(c4ccc(Br)cn4)CC3)nc(Nc3cc(C4CC4)[nH]n3)c2c1` shows pIC50 of 7 or more.
Response line: Condition met
